Listed here: items and their measured TC50.
- Tested on: Vero cells
- studyConditions: African green monkey
Just the number in µM, nothing appended.

Sample answers from the record:
compound: O=C(Nc1ncc(C(F)(F)F)s1)c1ccccn1 [compound 49]
unitInfo: µM
resultValue: 0.8
//
compound: CCC(C)(C)C(=O)Nc1cccnc1C(=O)Nc1ncc([N+](=O)[O-])s1 [compound 18]
unitInfo: µM
resultValue: 0.9
//
compound: CC(C)(C)OC(=O)Nc1ccccc1C(=O)Nc1ncc([N+](=O)[O-])s1 [compound 10]
unitInfo: µM
resultValue: 6.6
//
compound: Cc1nc(NC(=O)c2ccccn2)sc1[N+](=O)[O-] [compound 50]
unitInfo: µM
resultValue: 4.2
//
compound: O=C(Nc1ncc([N+](=O)[O-])s1)c1ccc(N2CCOCC2)cn1 [compound 25]
unitInfo: µM
resultValue: 11

Turning now to a further compound:
stdin: I'd like to know its TC50. The compound in question is O=C(Nc1ncc([N+](=O)[O-])s1)c1cc(O)ccc1O [compound 15]
stdout: 13

====

- Tested on: M. tuberculosis H37Rv (London Pride)
- procedureText: microbe, parasite or virus in culture
- Format: cell-based, Mycobacterium tuberculosis
- studyConditions: SAR discussion
measureName: activity against M. tuberculosis (in words)

Some solved entries appear below for comparison.
compound: CCC(C)(C)C(=O)Oc1cc(N2CCOCC2)ccc1C(=O)Nc1ncc([N+](=O)[O-])s1
resultValue: no activity

compound: COc1cccnc1C(=O)Nc1ncc([N+](=O)[O-])s1
resultValue: inactive

compound: CC(=O)Nc1ccccc1C(=O)Nc1ncc([N+](=O)[O-])s1
resultValue: no activity

compound: Nc1ccccc1C(=O)Nc1ncc([N+](=O)[O-])s1 [compound 5, 2-Amino-N-(5-nitrothiazol-2-yl)benzamide]
resultValue: no activity

stdin: Reported activity against M. tuberculosis (in words), compound Cc1cnc(NC(=O)c2ccccn2)s1 [compound 48, N-(5-Methylthiazol-2-yl)picolinamide] : ____
stdout: inactive

stdin: One more compound: O=C(Nc1nc(-c2ccccn2)cs1)c1ccccn1
stdout: inactive

stdin: And the next one, O=C(Nc1ncc([N+](=O)[O-])s1)c1ccc(N2CCOCC2)cn1 ?
stdout: inactive

====

- procedureText: Pharmacokinetic profiling in the rat
- Assay type: in vivo
- studyConditions: plasma, po
Here the recorded AUC is given for each entry.
Respond numerically; units are ng·h/mL and should not be typed.

molecule: O=C(Nc1ncc([N+](=O)[O-])s1)c1ccccc1O [compound 2, reference compound]
unitInfo: ng·h/mL
resultValue: 167

stdin: Consider the molecule shown here: O=C(Nc1ncc([N+](=O)[O-])s1)C1CCCCC1 [compound 28] What is its recorded AUC?
stdout: 418

====

- procedureText: Pharmacokinetic profiling in the rat
- Type: in vivo
- studyConditions: plasma
measureName: clearance (mL/min/kg)
Write the value in mL/min/kg as a bare number.

compound: O=C(Nc1ncc([N+](=O)[O-])s1)C1CCCCC1 [compound 28]
unitInfo: mL/min/kg
resultValue: 69.8

stdin: Which value of clearance has been reported for O=C(Nc1ncc([N+](=O)[O-])s1)c1ccccc1 [compound 4, N-(5-nitrothiazol-2-yl)benzamide] in the records?
stdout: 6.1

stdin: Request: O=C(Nc1ncc([N+](=O)[O-])s1)c1ccccc1O [compound 2, reference compound]
stdout: 57.5

stdin: Same thing, different compound: Cc1cccc(C(=O)Nc2ncc([N+](=O)[O-])s2)c1O [compound 13]
stdout: 8.96

====

compounds and their reported TC50
- Tested on: Vero cells
- studyConditions: African green monkey
Quick note: give the figure in µM, leave out the unit.

Solved cases below.
compound: O=C(Nc1ncc([N+](=O)[O-])s1)c1ccccn1 [compound 19, N-(5-Nitrothiazol-2-yl)picolinamide]
resultValue: 20
--
compound: CCC(C)(C)C(=O)Oc1cccnc1C(=O)Nc1ncc([N+](=O)[O-])s1 [compound 23]
resultValue: 21
--
compound: CCC(C)(C)C(=O)Nc1ccccc1C(=O)Nc1ncc([N+](=O)[O-])s1 [compound 9]
resultValue: 4.1
--
compound: Cc1nc(NC(=O)c2ccccc2O)sc1[N+](=O)[O-] [compound 46]
resultValue: 5.2

stdin: Name the reported TC50 value associated with the compound O=C(Nc1nc(-c2ccccn2)cs1)c1ccccn1 [compound 52]
stdout: 15

stdin: And for COc1ccnc(C(=O)Nc2ncc([N+](=O)[O-])s2)c1 [compound 20] ?
stdout: 11

stdin: Another compound to look at: COc1cccnc1C(=O)Nc1ncc([N+](=O)[O-])s1 [compound 24]
stdout: 37

stdin: Next compound: CNc1ccccc1C(=O)Nc1ncc([N+](=O)[O-])s1 [compound 6]
stdout: 15

stdin: // query: COc1ccc(C(=O)Nc2ncc([N+](=O)[O-])s2)nc1 [compound 21]
stdout: 4.3

stdin: Moving on to the next compound: O=C(Nc1nc(-c2ccccn2)c([N+](=O)[O-])s1)c1ccccn1 [compound 53]
stdout: 6.4

====

Recorded Vd for the following molecules
- procedureText: Pharmacokinetic profiling in the rat
- Format: in vivo
- studyConditions: plasma
The reply should consist of the numeric value with the unit placed after it.

Solved entries (count: 3):
molecule: O=C(Nc1ncc([N+](=O)[O-])s1)c1ccccc1 [compound 4, N-(5-nitrothiazol-2-yl)benzamide]
Vd: 0.18 L/kg

molecule: Cc1cccc(C(=O)Nc2ncc([N+](=O)[O-])s2)c1O
Vd: 0.16 L/kg

molecule: O=C(Nc1ncc([N+](=O)[O-])s1)c1ccccc1O [compound 2, reference compound]
Vd: 0.698 L/kg

We next turn to a different molecule, shown below.
stdin: I'd like to know its Vd. The molecule in question is O=C(Nc1ncc([N+](=O)[O-])s1)C1CCCCC1
stdout: 0.68 L/kg

====

Consider the following compounds and their measured TC50 readings.
- Test system: Vero cells
- studyConditions: African green monkey

compound: O=C(O)c1ccccc1C(=O)Nc1ncc([N+](=O)[O-])s1
targetSystem: Vero cells
TC50: >50 µM

compound: O=C(Nc1ncc(C(=O)O)s1)c1ccccn1
targetSystem: Vero cells
TC50: >50 µM

stdin: Endpoint output: TC50 of CC(=O)Oc1ccccc1C(=O)Nc1nccs1 [compound 45, 2-(Thiazol-2-ylcarbamoyl)phenyl Acetate] . Value?
stdout: >50 µM

====

- Test system: Vero cells
- studyConditions: African green monkey
TC50 by entry:

Illustrative cases are given below, each with its answer.
compound: O=C(Nc1ncc([N+](=O)[O-])s1)c1ccccc1O [compound 2, reference compound]
resultValue: >20 µM
//
compound: CO[C@H]1/C=C/O[C@@]2(C)Oc3c(C)c(O)c4c(O)c(c(/C=N/N5CCN(C)CC5)c(O)c4c3C2=O)NC(=O)/C(C)=C\C=C\[C@H](C)[C@H](O)[C@@H](C)[C@@H](O)[C@@H](C)[C@H](OC(C)=O)[C@@H]1C [rifampicin, reference compound]
resultValue: >50 µM

Kindly consider the entry below.
stdin: Please look up its TC50: CC(=O)Oc1ccccc1C(=O)Nc1ncc([N+](=O)[O-])s1 [compound 1, reference compound]
stdout: >20 µM

Recorded values, source paper PMC6044914.
